The reported measurements were obtained from PubChem BioAssay (NCI).

# Protocol Notes: NCI Yeast Anticancer Drug Screen. Data for the wt2 strain (AID 169);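 also: 0% = growth of vehicle-treated yeast cultures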
# Measurement Conditions: S. cerevisiae wt2 strain growth inhibition; at 1.2 µM; active compounds read high
About 79,000 compounds went through this panel and 15% of them were active in at least one assay; those are over-represented in the sample as a whole.
Endpoint Label: growth inhibition (%)
Give the quantity in %, number only.

// below: answered compounds
For reference, reported growth inhibition for "O=S(=O)(O)c1ccc2c(N=Nc3c(O)ccc4ccccc34)cccc2c1" stands at -1

For reference, reported growth inhibition for "CN(C)CCn1c2ccccc2c2nc3cc4ccccc4cc3nc21" stands at 18

For reference, reported growth inhibition for CC1(C)CC(=O)C(C(CC(c2ccccc2)c2cc3c(cc2O)OCO3)C2=C(O)CC(C)(C)CC2=O)=C(O)C1 (centres undefined) stands at -4

More entries:
For reference, reported growth inhibition for "O=C(O)[C@H]1[C@@H](C2CCCCC2)O[C@@H](C2CCCCC2)O[C@H]1C(F)(F)F" stands at -2

For reference, reported growth inhibition for O=C(Nc1ccn(C2CC(O)C(COC(c3ccccc3)(c3ccccc3)c3ccccc3)O2)c(=O)n1)c1ccccc1 (centres undefined) stands at -15

For reference, reported growth inhibition for "O=[N+]([O-])c1ccc2nnnn2c1" stands at 0

For reference, reported growth inhibition for "N=C(N)c1ccc(N=Nc2c(O)ccc3c2[nH]c2ccccc23)cc1" stands at -3

For reference, reported growth inhibition for "CC(=O)CC[N+](C)(C)C" stands at -22

For reference, reported growth inhibition for "Cc1nc2ccccc2c(=O)n1NC(=O)c1ccc(CS)cc1" stands at 4

----------
# Protocol Notes: NCI Yeast Anticancer Drug Screen. Data for the mgt1 strain (AID 153)
# Measurement Conditions: S. cerevisiae mgt1 mutant growth inhibition; at 100.0 µM; active compounds read high
The panel holds about 79,000 compounds, 15% with a hit somewhere; the sample as a whole holds those more often.
Endpoint Label: growth inhibition (%)
Give the quantity in %, number only.

// below: answered compounds
For reference, reported growth inhibition for "CCCCCCCCCCCCCCCCCN" stands at 96

For reference, reported growth inhibition for O=C1c2ccccc2C2CCC1c1ccccc12 (stereo not drawn) stands at 97

For reference, reported growth inhibition for "CCCCOc1ccc(Nc2c3ccccc3nc3ccccc23)cc1" stands at 78

For reference, reported growth inhibition for "O=CC(=C(I)I)c1ccccc1" stands at 93

More entries:
For reference, reported growth inhibition for "COc1ccc(/C=C2\S/C(=N/Nc3nc(-c4ccccc4)cs3)NC2=O)cc1OC" stands at 93

For reference, reported growth inhibition for "COc1ccc(C(=O)NCCN(C)C)c2nc3ccccc3cc12" stands at 67

For reference, reported growth inhibition for "Nc1ccc2cc(Br)c3ccccc3c2c1" stands at -3

For reference, reported growth inhibition for CCOC(=O)C(NC(=O)c1ccccc1)[CH](c1ccccc1)[Sn]([c]1ccccc1)([c]1ccccc1)[c]1ccccc1 (stereo not drawn) stands at 95

----------
# Protocol Notes: NCI Yeast Anticancer Drug Screen. Data for the bub3 strain (AID 167)
# Measurement Conditions: S. cerevisiae bub3 mutant strain, at 33.0 µM, active compounds read high
Compounds without any hit were thinned out: in the full panel of roughly 79,000, 15% have a hit.
Endpoint Label: growth inhibition (%)
Give the quantity in %, number only.

For reference, reported growth inhibition for "CCOC(=O)/C=C1\CCCn2c1ncc(C(=O)OCC)c2=O" stands at 10

For reference, reported growth inhibition for CCOC(=O)C(NC(=O)c1ccccc1)[CH](c1ccccc1)[Sn]([c]1ccccc1)([c]1ccccc1)[c]1ccccc1 (stereo not drawn) stands at 10

For reference, reported growth inhibition for "Nc1c([N+](=O)[O-])cc2c3c(cccc13)CC2" stands at 10
